assay: Acute toxicity (mortality) and body weight change in Sarcoma-180 tumor-bearing mice; details: mouse, in vivo, ip, 0.234 mg/kg;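 further: per cent mortality within the 10-day treatment period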
READOUT_NAME: mortality at 240 h (%)

In [3]: df
Out[3]:
                                   compound  result_number
0  CC(=O)C(O)N1C(=O)C=CC1=O (stereo not shown) [Methylglyoxal-maleimide]              0

====

experiment: in vivo; details: mouse, in vivo, ip, 0.936 mg/kg
READOUT_NAME: mortality at 240 h

>>> print(df.to_string())
                                   molecule  result
0  CC(=O)C(O)N1C(=O)C=CC1=O (stereo not shown) [Methylglyoxal-maleimide]      0%

====

assay: Acute toxicity (mortality) and body weight change in Sarcoma-180 tumor-bearing mice; details: mouse, in vivo, ip, 1.872 mg/kg;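 further: per cent mortality within the 10-day treatment period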
READOUT_NAME: mortality at 240 h (%)

                                   molecule  result_number
0  CC(=O)C(O)N1C(=O)C=CC1=O (stereo not shown) [Methylglyoxal-maleimide]              0

====

test: in vivo; conditions: mouse, in vivo, ip, 254 mg/kg
READOUT_NAME: mortality at 240 h (%)

>>> print(df.to_string())
                                   molecule  result_number
0  CC(=O)C(O)N1C(=O)C=CCC1=O (stereo not shown) [Methylglyoxal-glutaconic imide]              0

====

test: in vivo; conditions: mouse, in vivo, ip, 2032 mg/kg
READOUT_NAME: mortality at 240 h (%)

                                   compound        readout_name  result_number
0  CC(=O)C(O)N1C(=O)C=CCC1=O (stereo not shown) [Methylglyoxal-glutaconic imide]  mortality at 240 h            100

====

Experiment: Acute toxicity (mortality) and body weight change in Sarcoma-180 tumor-bearing mice;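 further: per cent mortality within the 10-day treatment period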
Details: mouse, in vivo, ip, 3.744 mg/kg
Procedure: The biological effects of methylglyoxal maleimide ("A") and methylglyoxal glutaconic imide ("B") were determined by tests on normal (non-tumorous) and subcutaneous Sarcoma-180 tumor-bearing mice. […] The compounds were administered by intraperitoneal route and the values were calculated by standard methods (Goldin A., in Meth.Can.Res. 4, p. 193, 1968). […]
READOUT_NAME: mortality at 240 h (%)

                                   compound  readout_units  result_number
0  CC(=O)C(O)N1C(=O)C=CC1=O (stereo not shown) [Methylglyoxal-maleimide]              %              0

====

assay: in vivo; details: mouse, in vivo, ip, 508 mg/kg
READOUT_NAME: mortality at 240 h

                                   compound  result
0  CC(=O)C(O)N1C(=O)C=CCC1=O (stereo not shown) [Methylglyoxal-glutaconic imide]      0%

====

test: in vivo; conditions: mouse, in vivo, ip, 1.872 mg/kg
READOUT_NAME: mortality at 240 h (%)

                                   compound  result_number
0  CC(=O)C(O)N1C(=O)C=CC1=O (stereo not shown) [Methylglyoxal-maleimide]              0

====

test: in vivo; conditions: mouse, in vivo, ip, 127 mg/kg
READOUT_NAME: mortality at 240 h (%)

In [3]: df
Out[3]:
                                   compound  result_number
0  CC(=O)C(O)N1C(=O)C=CCC1=O (stereo not shown) [Methylglyoxal-glutaconic imide]              0

====

assay: in vivo; details: mouse, in vivo, ip, 0.468 mg/kg
READOUT_NAME: mortality at 240 h

                                   molecule  result
0  CC(=O)C(O)N1C(=O)C=CC1=O (stereo not shown) [Methylglyoxal-maleimide]      0%

====

test: in vivo; settings: mouse, in vivo, ip, 127 mg/kg
READOUT_NAME: mortality at 240 h (%)

                                   molecule        readout_name  result_number
0  CC(=O)C(O)N1C(=O)C=CCC1=O (stereo not shown) [Methylglyoxal-glutaconic imide]  mortality at 240 h              0

====

assay: in vivo; details: mouse, in vivo, ip, 1016 mg/kg
READOUT_NAME: mortality at 240 h

                                   molecule        readout_name  result
0  CC(=O)C(O)N1C(=O)C=CCC1=O (stereo not shown) [Methylglyoxal-glutaconic imide]  mortality at 240 h      0%

====

assay: in vivo; settings: mouse, in vivo, ip, 2032 mg/kg
READOUT_NAME: mortality at 240 h (%)

                                   compound        readout_name  result_number
0  CC(=O)C(O)N1C(=O)C=CCC1=O (stereo not shown) [Methylglyoxal-glutaconic imide]  mortality at 240 h            100

====

assay: in vivo; conditions: mouse, in vivo, ip, 3.744 mg/kg
READOUT_NAME: mortality at 240 h

>>> df
                                   compound        readout_name  result
0  CC(=O)C(O)N1C(=O)C=CC1=O (stereo not shown) [Methylglyoxal-maleimide]  mortality at 240 h      0%

FYI, the data here is from patent US4066650A.
